# System: rodent lifetime carcinogenesis bioassay, tumor incidence TD50
# Test Method Notes: carcinogenic potency in animals, long-term in vivo studies, CPDB compilation (AID 1745844)
# Particulars: mouse; strain B6C3F1; males; in feed; site: liver; lesion: hepatocellular adenoma + hepatocellular carcinoma; dosed 53 weeks; study length 92 weeks
Measured Parameter: TD50

TD50 of `O=Nc1ccc(Nc2ccccc2)cc1` , assay on rodent lifetime carcinogenesis bioassay, tumor incidence TD50, is 340 mg/kg/day

====

# Tested on: rodent lifetime carcinogenesis bioassay, tumor incidence TD50
# Test Method Notes: carcinogenic potency in animals, long-term in vivo studies, CPDB compilation (AID 1745844)
# Particulars: mouse; strain B6C3F1; males; by gavage; site: kidney; lesion: tubule carcinoma; dosed 104 weeks; study length 104 weeks
Measured Parameter: TD50 (mg/kg/day)
State just the number; it will be interpreted in mg/kg/day.

Noted for `O=P(OCCCl)(OCCCl)OCCCl` : its TD50 reads 8450

====

# Test system: rodent lifetime carcinogenesis bioassay, tumor incidence TD50
# Test Method Notes: carcinogenic potency in animals, long-term in vivo studies, CPDB compilation (AID 1745844)
# Particulars: mouse; strain B6C3F1; males; in drinking water; site: lung; lesion: several types; types named in the paper; dosed 65 weeks; study length 70 weeks
Measured Parameter: TD50

Noted for `CCOC(N)=O` : its TD50 reads 5.91 mg/kg/day

====

Exercise: for every item that follows, state its recorded TD50.
# System: rodent lifetime carcinogenesis bioassay, tumor incidence TD50
# Test Method Notes: carcinogenic potency in animals, long-term in vivo studies, CPDB compilation (AID 1745844)
# Particulars: mouse; strain B6C3F1; males; by gavage; site: liver; lesion: hepatocellular adenoma + hepatocellular carcinoma; dosed 103 weeks; study length 104 weeks
Activity calls are given as the source filed them. How the calls were made is not given here.

Noted for `O=Cc1ccco1` : its TD50 reads 135 mg/kg/day

Noted for `ClCC(Cl)(Cl)Cl` : its TD50 reads 124 mg/kg/day

Noted for CCCC(Cl)CCCC(Cl)CCC(Cl)CCC(Cl)CCC(Cl)CCCC(Cl)CCC (configuration not stated) : its TD50 reads 143 mg/kg/day

Noted for `ClC(Cl)C(Cl)(Cl)Cl` : its TD50 reads 107 mg/kg/day

Noted for `CCCCCl` : its TD50 reads 808 mg/kg/day (inactive)

Noted for `CC1=CC(=O)CC(C)(C)C1` : its TD50 reads 573 mg/kg/day

Noted for `c1ccc2occc2c1` : its TD50 reads 21.3 mg/kg/day

====

# Tested on: rodent lifetime carcinogenesis bioassay, tumor incidence TD50
# Test Method Notes: carcinogenic potency in animals, long-term in vivo studies, CPDB compilation (AID 1745844)
# Particulars: rat; strain Sprague-Dawley; males; inhaled; site: testis; lesion: interstitial-cell adenoma; dosed 105 weeks; study length 105 weeks
Measured Parameter: TD50

Noted for `CC(F)(Cl)Cl` : its TD50 reads 5260 mg/kg/day

====

# System: rodent lifetime carcinogenesis bioassay, tumor incidence TD50
# Test Method Notes: carcinogenic potency in animals, long-term in vivo studies, CPDB compilation (AID 1745844)
# Particulars: mouse; strain B6C3F1; males; inhaled; site: lung; lesion: alveolar/bronchiolar carcinoma + adenocarcinoma; dosed 52 weeks; study length 104 weeks
Measured Parameter: TD50 (mg/kg/day)
State just the number; it will be interpreted in mg/kg/day.

Noted for `C=CC=C` : its TD50 reads 13

====

# Tested on: rodent lifetime carcinogenesis bioassay, tumor incidence TD50
# Test Method Notes: carcinogenic potency in animals, long-term in vivo studies, CPDB compilation (AID 1745844)
# Particulars: rat; strain Wistar; males; in drinking water; site: lung; lesion: adenoma; dosed 45 weeks; study length 52 weeks
Measured Parameter: TD50

TD50 of CC(O)CN(CC(C)O)N=O (stereo unspecified) , assay on rodent lifetime carcinogenesis bioassay, tumor incidence TD50, is 0.881 mg/kg/day

====

# Test system: rodent lifetime carcinogenesis bioassay, tumor incidence TD50
# Test Method Notes: carcinogenic potency in animals, long-term in vivo studies, CPDB compilation (AID 1745844)
# Particulars: mouse; strain C3H/HeN-MTV-/Nctr (MTV-); females; in feed; site: uterus; lesion: endometrial adenocarcinoma; dosed 112 weeks; study length 112 weeks
Measured Parameter: TD50 (mg/kg/day)
State just the number; it will be interpreted in mg/kg/day.

Noted for `CC/C(=C(/CC)c1ccc(O)cc1)c1ccc(O)cc1` : its TD50 reads 2.05

====

# Test system: rodent lifetime carcinogenesis bioassay, tumor incidence TD50
# Test Method Notes: carcinogenic potency in animals, long-term in vivo studies, CPDB compilation (AID 1745844)
# Particulars: rat; strain Sprague-Dawley; males; in feed; site: liver; lesion: liver-cell tumor, malignant; dosed 105 weeks; study length 105 weeks
Activity calls are given as the source filed them. The rule behind the calls is not given here.
Measured Parameter: TD50

Noted for `C/C(=C(\CCOC(=O)c1ccccc1)SC(=O)c1ccccc1)N(C=O)Cc1cnc(C)nc1N` : its TD50 reads 6770 mg/kg/day (inactive)

====

# Test system: rodent lifetime carcinogenesis bioassay, tumor incidence TD50
# Test Method Notes: carcinogenic potency in animals, long-term in vivo studies, CPDB compilation (AID 1745844)
# Particulars: rat; strain Charles River CD (Sprague-Dawley); males; in feed; site: liver; lesion: carcinoma; dosed 36 weeks; study length 52 weeks
Measured Parameter: TD50

Noted for C=CC(O)c1ccc2c(c1)OCO2 (stereo unspecified) : its TD50 reads 12.1 mg/kg/day

====

# System: rodent lifetime carcinogenesis bioassay, tumor incidence TD50
# Test Method Notes: carcinogenic potency in animals, long-term in vivo studies, CPDB compilation (AID 1745844)
# Particulars: rat; strain Sprague-Dawley; both sexes; in drinking water; site: liver; lesion: hepatocellular carcinoma; dosed 112 weeks; study length 112 weeks
Measured Parameter: TD50 (mg/kg/day)
State just the number; it will be interpreted in mg/kg/day.

Noted for O=NN1CCC(O)C1 (stereo unspecified) : its TD50 reads 8.11

====

# Test system: rodent lifetime carcinogenesis bioassay, tumor incidence TD50
# Test Method Notes: carcinogenic potency in animals, long-term in vivo studies, CPDB compilation (AID 1745844)
# Particulars: rat; strain Fischer 344; males; in feed; site: urinary bladder; lesion: transitional-cell carcinoma; dosed 66 weeks; study length 66 weeks
Measured Parameter: TD50
// return the numeric value with its unit appended

Noted for `Nc1c(Br)cc(Br)c2c1C(=O)c1ccccc1C2=O` : its TD50 reads 3640 mg/kg/day

====

# System: rodent lifetime carcinogenesis bioassay, tumor incidence TD50
# Test Method Notes: carcinogenic potency in animals, long-term in vivo studies, CPDB compilation (AID 1745844)
# Particulars: mouse; strain ICR; both sexes; in drinking water; site: any site (literature study); lesion: several types; types named in the paper; dosed 57 weeks; study length 57 weeks
Measured Parameter: TD50 (mg/kg/day)
State just the number; it will be interpreted in mg/kg/day.

TD50 of `Nc1ccc(N=Nc2ccc(-c3ccc(N=Nc4c(S(=O)(=O)O)cc5cc(S(=O)(=O)O)c(N=Nc6ccccc6)c(O)c5c4N)cc3)cc2)c(N)c1` , assay on rodent lifetime carcinogenesis bioassay, tumor incidence TD50, is 32

====

# Test system: rodent lifetime carcinogenesis bioassay, tumor incidence TD50
# Test Method Notes: carcinogenic potency in animals, long-term in vivo studies, CPDB compilation (AID 1745844)
# Particulars: mouse; strain B6C3F1; females; inhaled; site: liver; lesion: hepatocellular adenoma + hepatocellular carcinoma; dosed 61 weeks; study length 61 weeks
Measured Parameter: TD50

Noted for `C=CC=C` : its TD50 reads 1170 mg/kg/day

====

# Test system: rodent lifetime carcinogenesis bioassay, tumor incidence TD50
# Test Method Notes: carcinogenic potency in animals, long-term in vivo studies, CPDB compilation (AID 1745844)
# Particulars: rat; strain Fischer 344; males; by gavage; site: adrenal medulla; lesion: pheochromocytoma benign, bilateral + pheochromocytoma, benign; dosed 103 weeks; study length 105 weeks
Measured Parameter: TD50 (mg/kg/day)
State just the number; it will be interpreted in mg/kg/day.

Noted for `Nc1ccc(Cl)cc1` : its TD50 reads 14.8

====

Exercise: for every item that follows, state its recorded TD50.
# Tested on: rodent lifetime carcinogenesis bioassay, tumor incidence TD50
# Test Method Notes: carcinogenic potency in animals, long-term in vivo studies, CPDB compilation (AID 1745844)
# Particulars: rat; strain F344/DuCrj; females; in feed; site: forestomach; lesion: squamous-cell carcinoma; dosed 104 weeks; study length 104 weeks

Noted for `O=C(O)C=Cc1ccc(O)c(O)c1` : its TD50 reads 989 mg/kg/day

Noted for `Cc1ccc(O)c(O)c1` : its TD50 reads 1500 mg/kg/day

Noted for `COc1ccc(O)cc1` : its TD50 reads 3070 mg/kg/day

Noted for `Oc1ccc2c(c1)OCO2` : its TD50 reads 6500 mg/kg/day

====

# Tested on: rodent lifetime carcinogenesis bioassay, tumor incidence TD50
# Test Method Notes: carcinogenic potency in animals, long-term in vivo studies, CPDB compilation (AID 1745844)
# Particulars: rat; strain Fischer 344; females; in feed; site: clitoral gland; lesion: sebaceous adenoma; dosed 103 weeks; study length 104 weeks
Measured Parameter: TD50 (mg/kg/day)
State just the number; it will be interpreted in mg/kg/day.

TD50 of `O=S(=O)(O)c1ccc(N=Nc2cc(S(=O)(=O)O)c3ccccc3c2O)c2ccccc12` , assay on rodent lifetime carcinogenesis bioassay, tumor incidence TD50, is 16400

Origin of values: PubChem BioAssay AID1745844
